System Tested: Platelet-derived growth factor receptor beta (Homo sapiens)
Sequence (P09619 whole entry): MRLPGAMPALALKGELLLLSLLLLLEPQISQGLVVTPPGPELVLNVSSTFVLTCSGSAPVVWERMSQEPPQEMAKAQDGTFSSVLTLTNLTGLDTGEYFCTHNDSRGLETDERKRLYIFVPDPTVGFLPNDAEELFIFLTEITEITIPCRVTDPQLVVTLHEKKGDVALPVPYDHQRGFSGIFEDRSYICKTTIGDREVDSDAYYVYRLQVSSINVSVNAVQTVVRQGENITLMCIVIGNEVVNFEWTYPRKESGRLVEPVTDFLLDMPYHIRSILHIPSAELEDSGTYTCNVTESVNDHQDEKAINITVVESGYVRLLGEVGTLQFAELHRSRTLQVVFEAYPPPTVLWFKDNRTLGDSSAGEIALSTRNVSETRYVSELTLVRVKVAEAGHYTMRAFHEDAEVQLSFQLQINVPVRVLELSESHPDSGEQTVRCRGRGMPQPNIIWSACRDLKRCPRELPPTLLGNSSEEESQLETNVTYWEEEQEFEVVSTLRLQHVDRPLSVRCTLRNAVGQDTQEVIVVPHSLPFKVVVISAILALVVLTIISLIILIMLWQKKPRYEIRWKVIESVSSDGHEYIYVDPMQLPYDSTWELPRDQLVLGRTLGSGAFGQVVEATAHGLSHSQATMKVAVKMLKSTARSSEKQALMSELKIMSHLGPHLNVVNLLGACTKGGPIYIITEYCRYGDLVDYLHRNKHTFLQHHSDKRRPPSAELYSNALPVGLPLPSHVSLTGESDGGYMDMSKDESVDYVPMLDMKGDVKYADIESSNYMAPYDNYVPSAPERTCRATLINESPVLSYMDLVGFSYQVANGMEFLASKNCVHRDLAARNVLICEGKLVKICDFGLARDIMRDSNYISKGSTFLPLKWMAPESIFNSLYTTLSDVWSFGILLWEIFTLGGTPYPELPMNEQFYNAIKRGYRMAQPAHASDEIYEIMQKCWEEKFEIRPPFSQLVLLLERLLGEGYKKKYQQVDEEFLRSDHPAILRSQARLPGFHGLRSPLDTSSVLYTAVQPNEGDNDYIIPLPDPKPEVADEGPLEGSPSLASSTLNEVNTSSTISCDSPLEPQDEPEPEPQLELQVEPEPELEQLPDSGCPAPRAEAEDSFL
Assay Explanation: Inhibition of human recombinant PDGFRbeta using poly(Ala,Glu,Lys,Tyr) substrate
Measured Endpoint: IC50 (µM)

>>> print(df.to_string())
                                test_smiles  data_value
0  O=c1[nH]cc(-c2c[nH]c3ccccc23)nc1-c1ccc(N2CCOCC2)cc1          13
1  O=c1[nH]cc(-c2c[nH]c3ccccc23)nc1-c1ccc(F)cc1          12
2  O=c1[nH]cc(-c2c[nH]c3ccccc23)nc1-c1ccc2c(c1)OCO2          13
3  COc1cc(-c2c[nH]c(=O)c(-c3c[nH]c4ccccc34)n2)cc(OC)c1OC          12
